Data provenance: patent US20210196796A1

# Target Or Test System: T1, orthogonal hCD122 receptor (hoRb), hCD122 with H133D and Y134F (human, UniProt P14784 27-550); further: reference of the scale not given here
# T1 sequence: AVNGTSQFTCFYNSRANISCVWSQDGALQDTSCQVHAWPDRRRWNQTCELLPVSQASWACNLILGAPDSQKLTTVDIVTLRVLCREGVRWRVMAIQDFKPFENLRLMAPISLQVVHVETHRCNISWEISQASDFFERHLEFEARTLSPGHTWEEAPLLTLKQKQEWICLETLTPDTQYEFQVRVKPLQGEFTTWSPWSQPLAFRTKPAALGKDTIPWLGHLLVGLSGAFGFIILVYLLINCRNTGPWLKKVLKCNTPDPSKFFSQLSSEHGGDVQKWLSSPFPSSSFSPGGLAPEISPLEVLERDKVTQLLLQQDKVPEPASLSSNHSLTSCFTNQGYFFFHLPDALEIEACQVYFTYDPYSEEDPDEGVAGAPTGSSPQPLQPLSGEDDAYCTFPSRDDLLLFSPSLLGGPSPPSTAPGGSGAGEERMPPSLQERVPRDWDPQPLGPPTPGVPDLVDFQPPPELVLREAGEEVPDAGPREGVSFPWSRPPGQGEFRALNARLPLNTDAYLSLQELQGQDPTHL
# Experimental Protocol: cell-based or functional assay
Measured Parameter: Relative Proliferation Fold Change 3F8 1:50 (fold)

Known results for binders:
Binder: SQVLRA (ligand) APTSSSTKKTQLQLSQLLVLLRAILNGINNYKNPKLTRMLTFKFYMPKKATELKHLQCLEEELKPLEEVLNLAQSKNFHLRPRDLISNINVIVLELKGSETTFMCEYADETATIVEFLNRWITFCQSIISTLT
Measured Number: 30.2

Binder: ΔD20, SQV_KA (ligand) APTSSSTKKTQLQLSQLLVLKAILNGINNYKNPKLTRMLTFKFYMPKKATELKHLQCLEEELKPLEEVLNLAQSKNFHLRPRDLISNINVIVLELKGSETTFMCEYADETATIVEFLNRWITFCQSIISTLT
Measured Number: 1.66

Binder: L18E, SQVLKA (ligand) APTSSSTKKTQLQLSQLEVLLKAILNGINNYKNPKLTRMLTFKFYMPKKATELKHLQCLEEELKPLEEVLNLAQSKNFHLRPRDLISNINVIVLELKGSETTFMCEYADETATIVEFLNRWITFCQSIISTLT
Measured Number: 0.77

Binder: SQVSKA (ligand) APTSSSTKKTQLQLSQLLVSLKAILNGINNYKNPKLTRMLTFKFYMPKKATELKHLQCLEEELKPLEEVLNLAQSKNFHLRPRDLISNINVIVLELKGSETTFMCEYADETATIVEFLNRWITFCQSIISTLT
Measured Number: 1.29

Binder: KQVLKA (ligand) APTSSSTKKTQLQLKQLLVLLKAILNGINNYKNPKLTRMLTFKFYMPKKATELKHLQCLEEELKPLEEVLNLAQSKNFHLRPRDLISNINVIVLELKGSETTFMCEYADETATIVEFLNRWITFCQSIISTLT
Measured Number: 23

Binder: T3E, SQVLKA (ligand) APESSSTKKTQLQLSQLLVLLKAILNGINNYKNPKLTRMLTFKFYMPKKATELKHLQCLEEELKPLEEVLNLAQSKNFHLRPRDLISNINVIVLELKGSETTFMCEYADETATIVEFLNRWITFCQSIISTLT
Measured Number: 16

Binder: SQVLKF (ligand) APTSSSTKKTQLQLSQLLVLLKFILNGINNYKNPKLTRMLTFKFYMPKKATELKHLQCLEEELKPLEEVLNLAQSKNFHLRPRDLISNINVIVLELKGSETTFMCEYADETATIVEFLNRWITFCQSIISTLT
Measured Number: 17.4

Binder: Q13W SQVLKA (ligand) APTSSSTKKTQLWLSQLLVLLKAILNGINNYKNPKLTRMLTFKFYMPKKATELKHLQCLEEELKPLEEVLNLAQSKNFHLRPRDLISNINVIVLELKGSETTFMCEYADETATIVEFLNRWITFCQSIISTLT
Measured Number: 10.9

Binder: L18I, SQVLKA (ligand) APTSSSTKKTQLQLSQLIVLLKAILNGINNYKNPKLTRMLTFKFYMPKKATELKHLQCLEEELKPLEEVLNLAQSKNFHLRPRDLISNINVIVLELKGSETTFMCEYADETATIVEFLNRWITFCQSIISTLT
Measured Number: 11

Binder: ΔP2, SQVLKA (ligand) ATSSSTKKTQLQLSQLLVLLKAILNGINNYKNPKLTRMLTFKFYMPKKATELKHLQCLEEELKPLEEVLNLAQSKNFHLRPRDLISNINVIVLELKGSETTFMCEYADETATIVEFLNRWITFCQSIISTLT
Measured Number: 10.5

I: SQVLWA (ligand) APTSSSTKKTQLQLSQLLVLLWAILNGINNYKNPKLTRMLTFKFYMPKKATELKHLQCLEEELKPLEEVLNLAQSKNFHLRPRDLISNINVIVLELKGSETTFMCEYADETATIVEFLNRWITFCQSIISTLT
II: ΔL14, SQVLKA (ligand) APTSSSTKKTQLQSQLLVLLKAILNGINNYKNPKLTRMLTFKFYMPKKATELKHLQCLEEELKPLEEVLNLAQSKNFHLRPRDLISNINVIVLELKGSETTFMCEYADETATIVEFLNRWITFCQSIISTLT
III: F42K, SQVLKA (ligand) APTSSSTKKTQLQLSQLLVLLKAILNGINNYKNPKLTRMLTKKFYMPKKATELKHLQCLEEELKPLEEVLNLAQSKNFHLRPRDLISNINVIVLELKGSETTFMCEYADETATIVEFLNRWITFCQSIISTLT
IV: M104A, SQVLKA (ligand) APTSSSTKKTQLQLSQLLVLLKAILNGINNYKNPKLTRMLTFKFYMPKKATELKHLQCLEEELKPLEEVLNLAQSKNFHLRPRDLISNINVIVLELKGSETTFACEYADETATIVEFLNRWITFCQSIISTLT
Exercise: Could you please sort these 4 entries by Relative Proliferation Fold Change 3F8 1:50 from high to low? The response must list the labels following the requested ordering.
Key: IV, II, III, I
